# credit: patent US8895526B2

Each entry below carries its recorded Fold depletion in AML.
- System: tet-on competent MLL/AF9+Nras AML
- Procedure Summary: Pooled negative selection RNAi screening (deep sequencing)
- Type: cell-based, mouse
- Condition Info: deep sequencing reads, On Dox compared to T0
Numeric answer only, unit Fold assumed.

Molecule: Kit.4813: neutral control shRNA, SEQ ID NO: 197 (nucleic acid) TGCTGTTGACAGTGAGCGATTGGATATTCTTGAAAGTTTATAGTGAAGCCACAGATGTATAAACTTTCAAGAATATCCAAGTGCCTACTGCCTCGGA
Value Reported: 0.81

Q: Item EG277089.605: shRNA, SEQ ID NO: 115 (nucleic acid) TGCTGTTGACAGTGAGCGCCTCAATCTCATTGGTGGCTTATAGTGAAGCCACAGATGTATAAGCCACCAATGAGATTGAGATGCCTACTGCCTCGGA has what recorded Fold depletion in AML?
Result: 25.37

Q: One more molecule: Pde1b.2027: shRNA, SEQ ID NO: 162 (nucleic acid) TGCTGTTGACAGTGAGCGCTGCCTCCAAGTTTCTAAGCAATAGTGAAGCCACAGATGTATTGCTTAGAAACTTGGAGGCAATGCCTACTGCCTCGGA
Result: 15.12

Q: One more molecule: F10.1044: shRNA, SEQ ID NO: 117 (nucleic acid) TGCTGTTGACAGTGAGCGACACCATCTTGAATGAGTTCTATAGTGAAGCCACAGATGTATAGAACTCATTCAAGATGGTGCTGCCTACTGCCTCGGA
Result: 10.52
